Reference source: patent US10385038B2

experiment: Pharmacokinetic test, intragastric administration to Beagle dogs, plasma LC-MS/MS; assay type: in vivo; conditions: both sexes, beagle, dog, plasma, oral, from AUC(0-∞), crystal of citrate salt versus compound of Formula I, read-out: Relative bioavailability F2
READOUT: bioavailability (%)
Just the number please, in %, no unit attached.

Q. Need bioavailability, item COc1cc(N2CCNC[C@@H]2C)ncc1-c1cnc(N)c(O[C@H](C)c2c(Cl)ccc(F)c2Cl)c1.O=C(O)CC(O)(CC(=O)O)C(=O)O
A. 113

---

test: Pharmacokinetic test, intragastric administration to Beagle dogs, plasma LC-MS/MS; assay type: in vivo; conditions: both sexes, beagle, dog, plasma, oral, from AUC(0-t), crystal of citrate salt versus compound of Formula I, read-out: Relative bioavailability F1
READOUT: bioavailability
Express the reported value numerically, then name its unit.

Q. Need bioavailability, item COc1cc(N2CCNC[C@@H]2C)ncc1-c1cnc(N)c(O[C@H](C)c2c(Cl)ccc(F)c2Cl)c1.O=C(O)CC(O)(CC(=O)O)C(=O)O
A. 114%

---

assay: Pharmacokinetic test, intragastric administration to Beagle dogs, plasma LC-MS/MS; type: in vivo; details: both sexes, dog, plasma, po, suspension in 0.5% CMC-Na, citrate crystal 5.52 mg/kg, compound of Formula I 4 mg/kg (equimolar as base), mean ± spread
Entries and their Tmax values follow.
Just the number please, in h, no unit attached.

COc1cc(N2CCNC[C@@H]2C)ncc1-c1cnc(N)c(O[C@H](C)c2c(Cl)ccc(F)c2Cl)c1.O=C(O)CC(O)(CC(=O)O)C(=O)O [Example 2] ... 2.33

Q. Need Tmax, item COc1cc(N2CCNC[C@@H]2C)ncc1-c1cnc(N)c(O[C@H](C)c2c(Cl)ccc(F)c2Cl)c1 [Example 1]
A. 3.17
